B1: library; a variant is named by its letters at N, in order (parent)
chain: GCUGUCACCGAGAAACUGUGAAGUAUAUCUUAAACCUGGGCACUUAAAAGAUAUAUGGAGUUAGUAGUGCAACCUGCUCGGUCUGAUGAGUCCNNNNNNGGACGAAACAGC

variants of: B1; assay: normalized RNA/DNA level with ligand (relative to sTRSVctl = 100) (log10 (% of sTRSVctl)); HEK293T; ligand: cyclic di-GMP (c-di-GMP-II aptamer); ligand concentration (+) RNA-Seq: 1 mM; higher = less ribozyme self-cleavage, higher mRNA level; settings: reporter: mCherry (pCS4076), ligand present: yes
OBSERVABLE: normalized RNA/DNA level with ligand (log10)

| SEQUENCE_STRING | RECORDED_VALUE |
| --- | --- |
| GCUGUCACCGAGAAACUGUGAAGUAUAUCUUAAACCUGGGCACUUAAAAGAUAUAUGGAGUUAGUAGUGCAACCUGCUCGGUCUGAUGAGUCCUUGCGUGGACGAAACAGC [UUGCGU] | 1.86 |
| GCUGUCACCGAGAAACUGUGAAGUAUAUCUUAAACCUGGGCACUUAAAAGAUAUAUGGAGUUAGUAGUGCAACCUGCUCGGUCUGAUGAGUCCCGACUCGGACGAAACAGC [CGACUC] | 1.86 |
| GCUGUCACCGAGAAACUGUGAAGUAUAUCUUAAACCUGGGCACUUAAAAGAUAUAUGGAGUUAGUAGUGCAACCUGCUCGGUCUGAUGAGUCCUAACCUGGACGAAACAGC [UAACCU] | 1.86 |
| GCUGUCACCGAGAAACUGUGAAGUAUAUCUUAAACCUGGGCACUUAAAAGAUAUAUGGAGUUAGUAGUGCAACCUGCUCGGUCUGAUGAGUCCAAAGAUGGACGAAACAGC [AAAGAU] | 1.71 |
| GCUGUCACCGAGAAACUGUGAAGUAUAUCUUAAACCUGGGCACUUAAAAGAUAUAUGGAGUUAGUAGUGCAACCUGCUCGGUCUGAUGAGUCCAGAUGGGGACGAAACAGC [AGAUGG] | 1.73 |
| GCUGUCACCGAGAAACUGUGAAGUAUAUCUUAAACCUGGGCACUUAAAAGAUAUAUGGAGUUAGUAGUGCAACCUGCUCGGUCUGAUGAGUCCCGUAUUGGACGAAACAGC [CGUAUU] | 1.57 |
| GCUGUCACCGAGAAACUGUGAAGUAUAUCUUAAACCUGGGCACUUAAAAGAUAUAUGGAGUUAGUAGUGCAACCUGCUCGGUCUGAUGAGUCCGUUCGAGGACGAAACAGC [GUUCGA] | 1.75 |
| GCUGUCACCGAGAAACUGUGAAGUAUAUCUUAAACCUGGGCACUUAAAAGAUAUAUGGAGUUAGUAGUGCAACCUGCUCGGUCUGAUGAGUCCUGUGGAGGACGAAACAGC [UGUGGA] | 1.76 |
| GCUGUCACCGAGAAACUGUGAAGUAUAUCUUAAACCUGGGCACUUAAAAGAUAUAUGGAGUUAGUAGUGCAACCUGCUCGGUCUGAUGAGUCCGUGGCGGGACGAAACAGC [GUGGCG] | 1.87 |
| GCUGUCACCGAGAAACUGUGAAGUAUAUCUUAAACCUGGGCACUUAAAAGAUAUAUGGAGUUAGUAGUGCAACCUGCUCGGUCUGAUGAGUCCUAUGUAGGACGAAACAGC [UAUGUA] | 1.84 |
| GCUGUCACCGAGAAACUGUGAAGUAUAUCUUAAACCUGGGCACUUAAAAGAUAUAUGGAGUUAGUAGUGCAACCUGCUCGGUCUGAUGAGUCCAAAUGCGGACGAAACAGC [AAAUGC] | 1.79 |
| GCUGUCACCGAGAAACUGUGAAGUAUAUCUUAAACCUGGGCACUUAAAAGAUAUAUGGAGUUAGUAGUGCAACCUGCUCGGUCUGAUGAGUCCUAUUGUGGACGAAACAGC [UAUUGU] | 1.81 |
| GCUGUCACCGAGAAACUGUGAAGUAUAUCUUAAACCUGGGCACUUAAAAGAUAUAUGGAGUUAGUAGUGCAACCUGCUCGGUCUGAUGAGUCCUUAGGAGGACGAAACAGC [UUAGGA] | 1.76 |
| GCUGUCACCGAGAAACUGUGAAGUAUAUCUUAAACCUGGGCACUUAAAAGAUAUAUGGAGUUAGUAGUGCAACCUGCUCGGUCUGAUGAGUCCAGACCCGGACGAAACAGC [AGACCC] | 1.87 |
| GCUGUCACCGAGAAACUGUGAAGUAUAUCUUAAACCUGGGCACUUAAAAGAUAUAUGGAGUUAGUAGUGCAACCUGCUCGGUCUGAUGAGUCCCCUUUGGGACGAAACAGC [CCUUUG] | 1.77 |
| GCUGUCACCGAGAAACUGUGAAGUAUAUCUUAAACCUGGGCACUUAAAAGAUAUAUGGAGUUAGUAGUGCAACCUGCUCGGUCUGAUGAGUCCAAGGGAGGACGAAACAGC [AAGGGA] | 1.5 |
| GCUGUCACCGAGAAACUGUGAAGUAUAUCUUAAACCUGGGCACUUAAAAGAUAUAUGGAGUUAGUAGUGCAACCUGCUCGGUCUGAUGAGUCCAAUUCGGGACGAAACAGC [AAUUCG] | 1.8 |
| GCUGUCACCGAGAAACUGUGAAGUAUAUCUUAAACCUGGGCACUUAAAAGAUAUAUGGAGUUAGUAGUGCAACCUGCUCGGUCUGAUGAGUCCGACGCGGGACGAAACAGC [GACGCG] | 1.88 |
| GCUGUCACCGAGAAACUGUGAAGUAUAUCUUAAACCUGGGCACUUAAAAGAUAUAUGGAGUUAGUAGUGCAACCUGCUCGGUCUGAUGAGUCCGUGCCAGGACGAAACAGC [GUGCCA] | 1.9 |
| GCUGUCACCGAGAAACUGUGAAGUAUAUCUUAAACCUGGGCACUUAAAAGAUAUAUGGAGUUAGUAGUGCAACCUGCUCGGUCUGAUGAGUCCCAUAAGGGACGAAACAGC [CAUAAG] | 1.82 |
| GCUGUCACCGAGAAACUGUGAAGUAUAUCUUAAACCUGGGCACUUAAAAGAUAUAUGGAGUUAGUAGUGCAACCUGCUCGGUCUGAUGAGUCCGAAGCCGGACGAAACAGC [GAAGCC] | 1.89 |
| GCUGUCACCGAGAAACUGUGAAGUAUAUCUUAAACCUGGGCACUUAAAAGAUAUAUGGAGUUAGUAGUGCAACCUGCUCGGUCUGAUGAGUCCUUUCUUGGACGAAACAGC [UUUCUU] | 1.89 |
| GCUGUCACCGAGAAACUGUGAAGUAUAUCUUAAACCUGGGCACUUAAAAGAUAUAUGGAGUUAGUAGUGCAACCUGCUCGGUCUGAUGAGUCCGAGAGCGGACGAAACAGC [GAGAGC] | 1.85 |
